# system: the molecule itself
# method: MST
measure-name: pKd
Scale: pKd equals -log10([C]), with [C] in mol/L.

Input: Answer with reported pKd of HdeA E37Q (natural protein, Escherichia coli, UniProt P0AES9 22-110, looked up) ADAQKAADNKKPVNSWTCEDFLAVDESFQPTAVGFAQALNNKDKPEDAVLDVQGIATVTPAIVQACTQDKQANFKDKVKGEWDKIKKDM
Output: 6.31
